target: 5-hydroxytryptamine receptor 1E (Homo sapiens) (UniProt P28566); test: 5-HT1E receptor agonists, primary screen, cell-based, HTS (AID 574); conditions: CHO 5-HT1E Ga15 NFAT-bla reporter, FRET; at 6 µM; hits give high values; 0% DMSO wells, 100% control agonist wells;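 also: 100% = positive control agonist at 1 µM giving full maximal response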
Sequence (P28566 whole entry, looked up): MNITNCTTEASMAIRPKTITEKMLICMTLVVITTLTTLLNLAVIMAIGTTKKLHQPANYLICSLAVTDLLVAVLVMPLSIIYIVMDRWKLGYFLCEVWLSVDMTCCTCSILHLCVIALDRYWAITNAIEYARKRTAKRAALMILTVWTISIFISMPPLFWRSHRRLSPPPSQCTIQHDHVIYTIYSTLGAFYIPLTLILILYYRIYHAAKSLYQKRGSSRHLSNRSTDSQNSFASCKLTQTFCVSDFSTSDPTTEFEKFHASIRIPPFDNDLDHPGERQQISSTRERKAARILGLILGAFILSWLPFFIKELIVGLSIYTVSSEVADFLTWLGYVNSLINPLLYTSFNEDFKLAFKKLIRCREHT
The whole screen tested about 65,000 compounds, of which about 450 (0.69%) were called active. What follows is part of a selection rich in actives, with near analogues and random picks from the rest.
Here the recorded activation is given for each entry.
Just the number in %, nothing appended.

COMPOUND | activation [%]
CC(c1ccccc1)n1c(NCCCn2ccnc2)nc2c1c(=O)[nH]c(=O)n2C (stereo not given) | -0.6

Give its activation value. Item: COc1ccc(OCC(=O)OCC(=O)Nc2ccc(S(=O)(=O)N3CCCCC3)cc2)cc1
-0.3

Give its activation value. Item: CCC(C)Sc1nc2c(c(=O)[nH]c(=O)n2C)n1CC(O)COc1cccc2ccccc12 (stereo not given)
1.1

Give its activation value. Item: CCOC(=O)CSc1nnc(CNC(=O)Cc2ccccc2)n1-c1ccccc1OC
-0.7

Give its activation value. Item: Cc1cc(C(=O)OCC(=O)c2c(N)n(C)c(=O)n(C)c2=O)c(C)o1
0.7

###

molecular target: 5-hydroxytryptamine receptor 1E (Homo sapiens) (UniProt P28566); assay: 5-HT1E receptor agonists, primary screen, cell-based, HTS (AID 574); conditions: CHO 5-HT1E Ga15 NFAT-bla reporter, FRET; at 6 µM; hits give high values; 0% DMSO wells, 100% control agonist wells;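 also: 100% = positive control agonist at 1 µM giving full maximal response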
The whole screen tested about 65,000 compounds, of which about 450 (0.69%) were called active. Shown is part of a subset that was picked to be rich in actives.
VALUE TYPE: activation (%)
Just the number in %, nothing appended.

MOLECULE | RESULT UNITS | REPORTED RESULT
Cc1nnc(SCC(=O)N2CCc3ccccc32)n1-c1ccccc1 | % | -0.4
O=C(CCn1c(=S)[nH]c2ccccc2c1=O)NCCCN1CCCC1=O | % | -0.3
CC(C)Cn1c(CCC(=O)O)ccc1-c1cccs1 | % | 0.6
Cc1nc(NC(CC(C)C)C(=O)O)c2nc(C)oc2n1 (stereo unspecified) | % | -1.1

Give its activation value. Item: COc1ccccc1-n1cnc2cc(C(=O)NCC3CCCO3)ccc21 (stereo unspecified)
0

Give its activation value. Item: Cn1c(=O)cc(SCC(=O)N2CCCC2)c2cc(Cl)ccc21
-0.2

Give its activation value. Item: Cc1cc(=O)oc(C)c1C(=O)NCc1ccc(F)cc1
-0.2

Give its activation value. Item: O=C(Nc1ccccc1)Nc1ccccc1C(=O)NCc1ccco1
-0.6

Give its activation value. Item: O=C(CCn1c(=O)[nH]c2ccccc2c1=O)NCCCN1CCN(c2cccc(Cl)c2)CC1
11.7

Give its activation value. Item: Cc1ccc(F)cc1NC(=O)c1ccc2c(c1)OCO2
-0.9

Give its activation value. Item: Cc1ccc2nc(-c3ccc(SCC(=O)Nc4cc(C)on4)nc3)[nH]c2c1
-0.4

###

target: 5-hydroxytryptamine receptor 1E (Homo sapiens) (UniProt P28566); assay: 5-HT1E receptor agonists, primary screen, cell-based, HTS (AID 574); conditions: CHO 5-HT1E Ga15 NFAT-bla reporter, FRET; at 6 µM; hits give high values; 0% DMSO wells, 100% control agonist wells;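 also: 100% = positive control agonist at 1 µM giving full maximal response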
In all, about 65,000 compounds went through this assay and about 450 (0.69%) were called active. Many of the other results were omitted from the sample, so actives are more common in it than they were.
Here the recorded activation is given for each entry.
Just the number in %, nothing appended.

MOLECULE | activation / %
Cc1ccc2nc3n(c(=O)c2c1)CCC3 | -0.8
Cc1ccccc1NC(=O)c1cnn(-c2ccccc2)c1NC(=O)c1ccco1 | 0.5
C=CCn1c(N)c(C(=O)OCC(C)C)c2nc3ccccc3nc21 | 0.4
NC(=S)c1ccc(C(N)=S)o1 | 0
CCC1CCCCN1CCNS(=O)(=O)c1ccc2c(c1)CCN2C(C)=O (stereo unspecified) | -0.3

Give its activation value. Item: CCc1nnc(NC(=O)CSc2nc3c(c(=O)n2-c2ccccc2OC)SCC3)s1
-0.6

###

biological target: 5-hydroxytryptamine receptor 1E (Homo sapiens); test: 5-HT1E receptor agonists, primary screen, cell-based, HTS (AID 574); settings: CHO 5-HT1E Ga15 NFAT-bla reporter, FRET; at 6 µM; hits give high values; 0% DMSO wells, 100% control agonist wells;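 also: 100% = positive control agonist at 1 µM giving full maximal response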
Hit rate of the full screen: of about 65,000 compounds, about 450 (0.69%) were called active. This excerpt belongs to a sample that is enriched for actives.
VALUE TYPE: activation (%)
Just the number in %, nothing appended.

COMPOUND | activation, %
COCCCNC(=O)C1CC(=O)N(c2ccc(C)cc2)C1 (stereo unspecified) | -1.2

Give its activation value. Item: Nc1nnnn1/N=C/c1cccs1
-0.8

Give its activation value. Item: CCOC(=O)c1sc(NC(=O)CCN2CCOCC2)c(C(=O)OCC)c1C
-0.8

Give its activation value. Item: COc1cccc(C(CC(=O)NCCN2CCOCC2)NS(=O)(=O)c2ccc(C)cc2)c1OC (stereo unspecified)
0.5

Give its activation value. Item: Cn1nnnc1SCc1cc(=O)[nH]c2ccccc12
-0.5

Give its activation value. Item: CCc1c(C)sc(NC(=O)c2ccc(Br)o2)c1C(=O)OC
0.2

Give its activation value. Item: CS(=O)(=O)N(C(=O)NC(=O)NC1CCS(=O)(=O)C1)C1CCCCC1 (stereo unspecified)
0.1

Give its activation value. Item: COc1cccc(OCCOc2cccc(/C=N/n3cnnc3)c2)c1
-0.3

Give its activation value. Item: Cc1cc(C)nc(SCc2nnc(SCC(=O)Nc3ncc(C)s3)n2Cc2ccco2)n1
0.8

Give its activation value. Item: Cc1cc(C)c(C)c(S(=O)(=O)Nc2ccc(O)cc2)c1C
-0.5

Give its activation value. Item: Cc1ccc(S(=O)(=O)N2C3C=CC(C3)C2C(=O)O)cc1 (stereo unspecified)
-0.4

###

target: 5-hydroxytryptamine receptor 1E (Homo sapiens) (UniProt P28566); experiment: 5-HT1E receptor agonists, primary screen, cell-based, HTS (AID 574); conditions: CHO 5-HT1E Ga15 NFAT-bla reporter, FRET; at 6 µM; hits give high values; 0% DMSO wells, 100% control agonist wells;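 also: 100% = positive control agonist at 1 µM giving full maximal response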
Among all 65,000 compounds or so, about 450 (0.69%) were called active. This is one part of a sample in which actives are shown more often than they occur.
Here the recorded activation is given for each entry.
Just the number in %, nothing appended.

MOLECULE | REPORTED RESULT
O=C(NC1CCCC1)c1ccc(Br)s1 | -1.5
Cc1ccc(CCn2c3c(c4ccccc42)CN(C)CC3)cn1 | 0.2
CC1CN(C2CCCCC2)c2nc3c(c(=O)n(C)c(=O)n3C)n2C1 (stereo unspecified) | -0.2
COCCCN1C(=O)c2ccc(C(=O)Nc3ccc(OC)cc3OC)cc2C1=O | -0.6
O=C(O)CN(Cc1ccco1)S(=O)(=O)c1ccc(F)cc1 | 0

From here, focus on the item given below.
Give its activation value. Item: Cn1c(CN2CCOCC2)nc2cc(NC(=O)c3ccc(Cl)cc3)ccc21
0.6

###

Here the recorded activation is given for each entry.
target: 5-hydroxytryptamine receptor 1E (Homo sapiens) (UniProt P28566); experiment: 5-HT1E receptor agonists, primary screen, cell-based, HTS (AID 574); conditions: CHO 5-HT1E Ga15 NFAT-bla reporter, FRET; at 6 µM; hits give high values; 0% DMSO wells, 100% control agonist wells;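 also: 100% = positive control agonist at 1 µM giving full maximal response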
Out of some 65,000 compounds screened, about 450 (0.69%) were called active. This is one part of a sample in which actives are shown more often than they occur.
Just the number in %, nothing appended.

Guide cases for activation, answers given:
MOLECULE | VALUE TYPE | REPORTED RESULT
CC(C)CNC(=O)C1CCCN(S(=O)(=O)c2ccc(-n3cnnn3)cc2)C1 (configuration not stated) | activation | -0.3
COc1cccc(-c2nc3n(n2)C(c2ccccc2Cl)C(C(N)=O)=C(C)N3)c1 (configuration not stated) | activation | -0.2
CC1(C)CN=C(N2CCN(c3ncnc4sc5c(c34)CCCC5)CC2)S1 | activation | -0.6
Cc1cn(COC/C=C/c2ccccc2)c(=O)[nH]c1=O | activation | 0.2
CCCS(=O)(=O)N1CCCC(C(=O)NCc2ccco2)C1 (configuration not stated) | activation | 0.6
CCNc1nc(NCC)nc(N(C)n2cnnc2)n1 | activation | 1.1

Give its activation value. Item: CC(=O)Nc1cccc(Oc2cc(C#N)c(C#N)cc2N2CCOCC2)c1
-0.6

Give its activation value. Item: COCCCNC(=O)COc1cc(C)c(Cl)c(C)c1
-0.3

Give its activation value. Item: Cc1c(CN2CCC(C)CC2)c(=O)n(-c2ccccc2)n1C
-0.1

Give its activation value. Item: O=C(Nc1c(Cl)cccc1Cl)C1CCC1
0.5

Give its activation value. Item: Cc1cnc(C(=O)OCC(=O)Nc2ccc(Cl)cc2Cl)cn1
0.2

Give its activation value. Item: COC(=O)COc1ccc(S(=O)(=O)N2CCOCC2)cc1
-0.6

Source of measurements: PubChem BioAssay AID574
